target: LFA-1 binding to immobilized ICAM-1 (Homo sapiens, UniProt P05107+P20701); construct: made in house; host or cells: transfected 293 cells (LFA-1); assay: LFA-1/ICAM-1 Protein-Protein Assay (solid-phase ELISA); conditions: 5dICAM-Ig coated plates; membrane-bound LFA-1 from transfected 293 cells
Sequence (P20701 26-1170): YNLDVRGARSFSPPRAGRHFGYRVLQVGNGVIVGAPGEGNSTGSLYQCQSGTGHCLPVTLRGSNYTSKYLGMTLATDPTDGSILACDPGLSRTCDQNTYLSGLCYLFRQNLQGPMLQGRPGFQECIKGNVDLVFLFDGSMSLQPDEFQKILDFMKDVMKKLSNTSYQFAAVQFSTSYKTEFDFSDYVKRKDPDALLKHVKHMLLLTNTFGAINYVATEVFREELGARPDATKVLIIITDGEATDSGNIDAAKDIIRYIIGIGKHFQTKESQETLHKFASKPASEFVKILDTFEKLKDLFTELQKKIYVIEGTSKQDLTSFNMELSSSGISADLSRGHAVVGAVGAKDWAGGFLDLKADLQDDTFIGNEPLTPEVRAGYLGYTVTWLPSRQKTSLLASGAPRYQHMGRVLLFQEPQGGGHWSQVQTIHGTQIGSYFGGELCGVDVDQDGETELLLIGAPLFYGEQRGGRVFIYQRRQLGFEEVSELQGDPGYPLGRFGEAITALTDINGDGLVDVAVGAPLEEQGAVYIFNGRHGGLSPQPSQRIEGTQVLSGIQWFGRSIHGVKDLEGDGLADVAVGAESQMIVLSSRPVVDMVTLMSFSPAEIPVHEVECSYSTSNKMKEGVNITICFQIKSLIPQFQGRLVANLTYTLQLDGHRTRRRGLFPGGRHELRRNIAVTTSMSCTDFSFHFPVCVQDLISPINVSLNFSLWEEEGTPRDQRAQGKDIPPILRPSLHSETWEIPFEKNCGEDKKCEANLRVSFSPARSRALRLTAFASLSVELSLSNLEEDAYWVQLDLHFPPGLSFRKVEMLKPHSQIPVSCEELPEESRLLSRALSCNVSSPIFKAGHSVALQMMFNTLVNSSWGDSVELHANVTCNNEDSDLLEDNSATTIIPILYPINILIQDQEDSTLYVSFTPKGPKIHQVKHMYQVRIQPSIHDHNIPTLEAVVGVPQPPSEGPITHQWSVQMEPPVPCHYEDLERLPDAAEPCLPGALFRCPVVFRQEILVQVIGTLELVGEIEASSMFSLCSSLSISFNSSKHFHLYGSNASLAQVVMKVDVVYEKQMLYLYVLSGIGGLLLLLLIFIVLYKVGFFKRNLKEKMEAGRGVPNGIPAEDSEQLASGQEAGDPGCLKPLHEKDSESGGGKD
Sequence (P05107 23-769): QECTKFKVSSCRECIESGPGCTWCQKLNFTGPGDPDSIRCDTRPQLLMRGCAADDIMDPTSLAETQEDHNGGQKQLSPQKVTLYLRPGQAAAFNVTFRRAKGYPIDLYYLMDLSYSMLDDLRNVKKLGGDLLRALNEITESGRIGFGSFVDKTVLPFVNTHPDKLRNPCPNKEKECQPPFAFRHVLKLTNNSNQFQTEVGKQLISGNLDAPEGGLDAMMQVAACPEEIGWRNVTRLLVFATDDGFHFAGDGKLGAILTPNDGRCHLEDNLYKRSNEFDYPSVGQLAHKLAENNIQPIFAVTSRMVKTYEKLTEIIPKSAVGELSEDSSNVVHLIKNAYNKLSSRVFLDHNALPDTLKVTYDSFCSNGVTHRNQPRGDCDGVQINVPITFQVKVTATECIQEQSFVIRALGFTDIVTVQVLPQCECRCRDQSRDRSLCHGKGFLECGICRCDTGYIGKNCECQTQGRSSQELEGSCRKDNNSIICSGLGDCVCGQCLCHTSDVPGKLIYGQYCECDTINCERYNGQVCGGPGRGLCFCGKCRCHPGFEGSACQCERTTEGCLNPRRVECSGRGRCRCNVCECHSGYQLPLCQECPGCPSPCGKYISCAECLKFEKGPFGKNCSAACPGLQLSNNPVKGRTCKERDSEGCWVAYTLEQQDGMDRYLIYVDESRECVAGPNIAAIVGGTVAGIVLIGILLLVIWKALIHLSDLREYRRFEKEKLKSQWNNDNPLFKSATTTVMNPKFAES
pIC50: −log10 of the molar value.
# pIC50 values compiled below
READOUT: pIC50

- COMPOUND: "Cc1cc(C(=O)N[C@H](C)c2cccc3ccccc23)cc(C)c1C(=O)N/C(=C\\c1[nH]cnc1C)C(=O)O [Example 240]"
  RESULT: 8.32
- COMPOUND: "Cc1cc(C(=O)NCc2cc(F)cc(F)c2)cc(C)c1C(=O)N/C(=C\\c1cnc2ccccc2c1)C(=O)O [Example 253]"
  RESULT: 8.18
- COMPOUND: "O=C(O)/C(=C/c1csc2ccccc12)NC(=O)c1ccc(C(=O)NCc2cccc(O)c2)cc1Br [Example 264]"
  RESULT: 8.38
- COMPOUND: "Cn1ccc2ccc(/C=C(\\NC(=O)c3ccc(C(=O)NCc4cccc(O)c4)cc3Cl)C(=O)O)cc21 [Example 305]"
  RESULT: 8.38
- COMPOUND: "O=C(O)/C(=C/c1nccs1)NC(=O)c1ccc(C(=O)NCc2cccc(O)c2)cc1Br [Example 268]"
  RESULT: 7.98
- COMPOUND: "O=C(O)/C(=C/c1ccc2[nH]nnc2c1)NC(=O)c1ccc(C(=O)NCc2cccc3[nH]ccc23)cc1Br [Example 286]"
  RESULT: 9.13
- COMPOUND: "Cc1nc(C)c(/C=C(\\NC(=O)c2ccc(C(=O)NCc3cccc(O)c3)cc2Cl)C(=O)O)s1 [Example 244]"
  RESULT: 8.71
- COMPOUND: "O=C(O)/C(=C/c1cnc2ccccc2c1)NC(=O)c1ccc(C(O)/C=C/c2cccc(O)c2)cc1Cl (racemic) [Example 298]"
  RESULT: 8.37
- COMPOUND: "Cc1cc(C(=O)N[C@H](C)c2cccc3ccccc23)cc(C)c1C(=O)N/C(=C\\c1ccc2[nH]nnc2c1)C(=O)O [Example 239]"
  RESULT: 8.67
- COMPOUND: "O=C(O)/C(=C/c1nc[nH]n1)NC(=O)c1ccc(C(=O)NCc2cccc(O)c2)cc1Br [Example 290]"
  RESULT: 7.87
- COMPOUND: "Cc1nc(C)c(/C=C(\\NC(=O)c2ccc(C(=O)NCc3cccc(O)c3)cc2Br)C(=O)O)s1 [Example 258]"
  RESULT: 8.63
- COMPOUND: "C[C@@H](NC(=O)c1cc(Cl)c(C(=O)N/C(=C\\c2cnc3ccccc3c2)C(=O)O)c(Cl)c1)c1cccc2ccccc12 [Example 252]"
  RESULT: 8.57
- COMPOUND: "O=C(O)/C(=C/c1ccccc1)NC(=O)c1ccc(C(=O)NCc2cccc(O)c2)cc1Br [Example 269]"
  RESULT: 8.37
- COMPOUND: "Cc1cc(C(=O)NCc2cccc(O)c2)ccc1C(=O)N/C(=C\\c1cnc2ccccc2c1)C(=O)O [Example 312]"
  RESULT: 8.33
- COMPOUND: "O=C(O)/C(=C/c1ccccn1)NC(=O)c1ccc(C(=O)NCc2cccc(O)c2)cc1Br [Example 273]"
  RESULT: 8.27
